Values were extracted from the supplement of paper PMC10307832.

Please respond with reported relative viability for every item in the list.
tested on: HCC-827; test: relative viability (nuclei count vs DMSO), 5 days (fraction); higher = more cells survive; details: first compound 0.253 µM
Give bare numbers.

Example results:
Value sought: relative viability, system HCC-827, item COc1nc(C)cnc1NS(=O)(=O)c1cccnc1-c1ccc(-c2nnco2)cc1 [Zibotentan] + CCNC(=O)c1noc(-c2cc(C(C)C)c(O)cc2O)c1-c1ccc(CN2CCOCC2)cc1 [Luminespib] (partner 0.01 µM) . Result: 0.501

The measured relative viability that COc1nc(C)cnc1NS(=O)(=O)c1cccnc1-c1ccc(-c2nnco2)cc1 [Zibotentan] + N=C(N)NC(=N)NCCc1ccccc1 [Phenformin] (partner 250 µM) showed for HCC-827 is 0.399

Query O=c1cc(-c2cccc3c2Sc2ccccc2S3)oc(N2CCOCC2)c1 + NC(=O)Nc1cc(-c2cccc(F)c2)sc1C(=O)N[C@H]1CCCNC1 [AZD7762] (partner 0.2 µM) on HCC-827; relative viability returned: 0.196

Continuing:
Reported relative viability (HCC-827) for entry O=c1cc(-c2cccc3c2Sc2ccccc2S3)oc(N2CCOCC2)c1 + Cc1nc(NC(=O)N2CCC[C@H]2C(N)=O)sc1-c1ccnc(C(C)(C)C(F)(F)F)c1 [Alpelisib] (partner 2 µM) is 1.02
